Each recorded value in this set is attributed to patent US20250250357A1.

molecular target: T1, human MSLN-FL-his protein (human, UniProt Q13421 296-580); assay: SPR (Biacore), antibody captured on Protein A chip;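 further: measured at 25 °C, analyte injected 240 s in five twofold dilutions from 200 nM, dissociation up to 600 s, double-referenced, fitted with Langmuir 1:1 model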
T1 construct: made in HEK293E cells, purified on nickel column; also called hMSLN-FL-his; human MSLN full-length protein; not shown: His tag
T1 sequence (Q13421 other isoform, or with tags, fused parts or gaps): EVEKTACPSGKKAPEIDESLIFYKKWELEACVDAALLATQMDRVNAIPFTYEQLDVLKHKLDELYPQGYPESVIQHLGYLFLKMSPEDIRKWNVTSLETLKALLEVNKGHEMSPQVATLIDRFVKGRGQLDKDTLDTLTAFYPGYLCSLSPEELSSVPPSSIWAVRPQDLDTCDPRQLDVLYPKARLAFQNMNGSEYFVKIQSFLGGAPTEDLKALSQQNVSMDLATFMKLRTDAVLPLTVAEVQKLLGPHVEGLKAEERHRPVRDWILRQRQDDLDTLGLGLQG
Readout Name: koff (s⁻¹)

1. S009-F2.58.8 (antibody, human IgG1, kappa, V domains shown, human-murine chimeric antibody, human IgG1/kappa constant regions) VH: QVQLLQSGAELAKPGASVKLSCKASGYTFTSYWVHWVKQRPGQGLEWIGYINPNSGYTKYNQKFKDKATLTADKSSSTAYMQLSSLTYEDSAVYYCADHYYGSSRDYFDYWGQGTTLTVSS VL: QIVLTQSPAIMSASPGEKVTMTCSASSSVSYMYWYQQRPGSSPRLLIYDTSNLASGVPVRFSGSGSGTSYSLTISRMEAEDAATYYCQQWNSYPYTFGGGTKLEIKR ... 0.000123
2. S009-F1.56.1 (antibody, human IgG1, kappa, V domains shown, human-murine chimeric antibody, human IgG1/kappa constant regions) VH: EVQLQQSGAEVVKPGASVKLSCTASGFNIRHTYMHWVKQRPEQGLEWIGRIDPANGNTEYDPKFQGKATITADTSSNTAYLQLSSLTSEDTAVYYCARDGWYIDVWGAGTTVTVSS VL: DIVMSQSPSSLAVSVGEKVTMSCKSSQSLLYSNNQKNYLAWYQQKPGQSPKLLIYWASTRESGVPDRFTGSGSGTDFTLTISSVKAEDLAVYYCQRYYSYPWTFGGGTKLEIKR ... 0.00071
3. S009-F1.2.12 (antibody, human IgG1, kappa, V domains shown, human-murine chimeric antibody, human IgG1/kappa constant regions) VH: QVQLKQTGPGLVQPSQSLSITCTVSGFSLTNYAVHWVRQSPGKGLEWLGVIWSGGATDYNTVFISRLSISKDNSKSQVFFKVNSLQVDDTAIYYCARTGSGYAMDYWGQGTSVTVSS VL: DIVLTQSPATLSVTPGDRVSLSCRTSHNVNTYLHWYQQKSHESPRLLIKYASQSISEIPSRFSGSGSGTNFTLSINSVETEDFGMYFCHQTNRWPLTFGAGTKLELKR ... 0.00143
